Property: melting point

CCCCN1C(=O)C(NC(=O)C2(NC(=O)CCC(C)C)CCCC2)N=C(C(C)(C)C)c2ccccc21 (stereo not shown) | 175 to 177 °C
CN1C(=O)[C@@H](NC(=O)C2(NC(=O)Cc3cc(F)cc(F)c3)CC2)N=C(c2ccccc2)c2ccccc21 | 212 to 214 °C
CN1C(=O)[C@@H](NC(=O)C2(NC(=O)Cc3cc(F)cc(F)c3)CCCC2)N=C(c2ccccc2)c2ccccc21 | 112 to 117 °C

As a next step, examine the compound that follows.
Q: Requested field: melting point. Item: CN1C(=O)[C@@H](NC(=O)C2(NC(=O)Cc3cc(F)cc(F)c3)CCCCC2)N=C(c2ccccc2)c2ccccc21
Result: 126 to 129 °C

These data points were gathered from patent US7390896B2.
